IC50 data for PI3K α (Homo sapiens (Human), UniProt P42336) follow.

Below: 5 compounds and their reported IC50.
Nc1nc2cc(-c3ccc4nccc(-c5ccncc5)c4c3)ccc2s1: < 100 nM
Nc1nc2cc(-c3ccc4ncc(C(=O)N5CCN(C6CC6)CC5)n4c3)ccc2o1: < 100 nM
NC(=O)[C@@H]1CCCN1c1cnc2ccc(-c3ccc4oc(N)nc4c3)cc2n1: < 100 nM
CC(C)n1cnc2ccc(-c3ccc4oc(N)nc4c3)cc2c1=O: < 100 nM
CC(=O)NC1CCN(C(=O)c2cnc3ccc(-c4ccc5oc(N)nc5c4)cn23)CC1: < 1000 nM

Query :: Fetch value of IC50 on PI3K α (Homo sapiens (Human), UniProt P42336) for Nc1nc2cc(-c3ccn4ncc(-c5ccncc5)c4c3)ccc2o1 .
Sequence (P42336 whole entry): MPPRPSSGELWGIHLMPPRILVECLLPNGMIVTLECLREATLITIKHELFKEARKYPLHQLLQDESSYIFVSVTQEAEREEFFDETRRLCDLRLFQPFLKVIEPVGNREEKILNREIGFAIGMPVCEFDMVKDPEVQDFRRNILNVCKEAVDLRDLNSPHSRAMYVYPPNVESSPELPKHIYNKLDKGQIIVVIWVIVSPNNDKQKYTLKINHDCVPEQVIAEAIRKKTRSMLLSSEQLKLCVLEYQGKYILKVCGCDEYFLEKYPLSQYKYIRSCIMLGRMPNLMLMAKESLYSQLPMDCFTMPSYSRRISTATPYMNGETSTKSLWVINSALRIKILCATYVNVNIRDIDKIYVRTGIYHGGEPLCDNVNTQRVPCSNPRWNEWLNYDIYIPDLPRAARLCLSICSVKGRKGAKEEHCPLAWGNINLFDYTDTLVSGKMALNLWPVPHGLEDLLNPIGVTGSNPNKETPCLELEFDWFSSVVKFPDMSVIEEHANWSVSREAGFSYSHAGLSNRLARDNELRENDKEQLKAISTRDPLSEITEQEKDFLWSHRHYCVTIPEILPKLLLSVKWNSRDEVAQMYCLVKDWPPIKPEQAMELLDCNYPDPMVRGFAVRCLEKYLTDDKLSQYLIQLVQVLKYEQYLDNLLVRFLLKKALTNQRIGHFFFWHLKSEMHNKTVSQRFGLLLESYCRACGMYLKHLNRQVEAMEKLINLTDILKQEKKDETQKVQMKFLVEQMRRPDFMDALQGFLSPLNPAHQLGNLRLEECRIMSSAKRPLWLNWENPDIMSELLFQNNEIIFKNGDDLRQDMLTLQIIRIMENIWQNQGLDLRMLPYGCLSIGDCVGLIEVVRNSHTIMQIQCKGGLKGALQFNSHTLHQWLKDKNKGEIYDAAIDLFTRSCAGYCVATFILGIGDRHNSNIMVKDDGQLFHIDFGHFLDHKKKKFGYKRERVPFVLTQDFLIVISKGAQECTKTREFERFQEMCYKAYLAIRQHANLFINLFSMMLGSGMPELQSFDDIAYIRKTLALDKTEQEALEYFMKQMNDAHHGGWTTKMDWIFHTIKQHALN
Sequence (P27986 whole entry partner): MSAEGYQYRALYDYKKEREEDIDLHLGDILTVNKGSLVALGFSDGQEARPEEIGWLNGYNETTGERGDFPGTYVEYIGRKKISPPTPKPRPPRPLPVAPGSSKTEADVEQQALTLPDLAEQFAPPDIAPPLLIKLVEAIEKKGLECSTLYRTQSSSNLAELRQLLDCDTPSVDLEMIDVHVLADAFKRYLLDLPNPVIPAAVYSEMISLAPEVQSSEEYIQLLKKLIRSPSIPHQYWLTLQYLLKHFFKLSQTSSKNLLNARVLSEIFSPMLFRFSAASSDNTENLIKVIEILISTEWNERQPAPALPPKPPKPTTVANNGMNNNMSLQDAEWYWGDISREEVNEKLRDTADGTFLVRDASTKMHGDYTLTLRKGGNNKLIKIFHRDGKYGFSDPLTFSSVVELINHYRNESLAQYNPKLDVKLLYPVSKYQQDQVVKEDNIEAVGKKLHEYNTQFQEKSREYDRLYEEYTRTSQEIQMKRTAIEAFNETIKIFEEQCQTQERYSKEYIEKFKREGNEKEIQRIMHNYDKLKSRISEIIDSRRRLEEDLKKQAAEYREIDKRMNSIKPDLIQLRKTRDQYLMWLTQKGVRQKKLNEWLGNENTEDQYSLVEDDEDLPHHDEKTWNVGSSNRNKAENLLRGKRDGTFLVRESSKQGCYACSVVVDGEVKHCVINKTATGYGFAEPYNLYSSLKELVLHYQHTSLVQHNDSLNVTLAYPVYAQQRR
Result :: < 100 nM

Query :: State recorded IC50 with PI3K α (Homo sapiens (Human), UniProt P42336), entry Nc1nsc2c(-c3ccc4ncc(C(=O)N5CCOCC5)n4c3)cccc12 , no comment.
Result :: < 10000 nM
